target: NANOG (human, UniProt Q9H9S0 1-305); assay: Ni-NTA filter microplate fluorescent DNA binding
Sequence (Q9H9S0 whole entry): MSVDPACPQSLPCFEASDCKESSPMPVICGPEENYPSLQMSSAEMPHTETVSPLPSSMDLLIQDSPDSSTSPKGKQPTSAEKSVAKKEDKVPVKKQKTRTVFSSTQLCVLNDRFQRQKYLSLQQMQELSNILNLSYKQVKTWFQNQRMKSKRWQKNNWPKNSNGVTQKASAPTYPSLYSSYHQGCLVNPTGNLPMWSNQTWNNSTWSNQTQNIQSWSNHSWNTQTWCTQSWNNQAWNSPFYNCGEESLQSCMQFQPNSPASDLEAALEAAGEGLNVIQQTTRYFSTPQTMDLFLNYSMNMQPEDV
readout kind: Kd (nM)
Give bare numbers, in nM.

Req: What Kd value was documented for this binder, NANOG cognate probe (Tcf3 enhancer) (dsDNA) DNA 1: ACCTGTTAATGGGAGCGC DNA 2: GCGCTCCCATTAACAGGT ?
Resp: 44
